Task for the reader: assign each of the following molecules its reported IC50.
system: MT4; assay: Antiproliferative activity against human MT4 cells by MTT assay; format: functional, cell-based
One number for each entry, in µM.

Worked cases, answers included:
Param item = `c1ccc(-c2cc(CN3CC4CCC(C3)N4Cc3ccnc(-c4ccccc4)c3)ccn2)cc1` ; retrieve measured IC50.
19

Also Sc1ncnc2nc[nH]c12 [MERCAPTOPURINE ANHYDROUS] , if possible.
0.1

Also `CC(=O)Nc1ccc(-c2cc(CN3CC4CCC(C3)N4Cc3ccnc(-c4ccc(NC(C)=O)cc4)c3)ccn2)cc1` , if possible.
18

Also `COc1ccc(-c2cc(CN3CC4CCC(C3)N4Cc3ccnc(-c4ccc(OC)cc4)c3)ccn2)cc1` , if possible.
4

Also `COc1cc(-c2cc(CN3CC4CCC(C3)N4Cc3ccnc(-c4cc(OC)c(OC)c(OC)c4)c3)ccn2)cc(OC)c1OC` , if possible.
2

In the following, a different molecule is considered.
Param item = `CC[C@@]1(O)C(=O)OCc2c1cc1n(c2=O)Cc2cc3ccccc3nc2-1` ; retrieve measured IC50.
0.004

====

tested on: HepG2; test: Antiproliferative activity against human HepG2 cells by MTT assay; type: functional, cell-based
Values of IC50 strictly less than 40 µM map to met, and values of at least 40 µM map to not met.

Please review the entries below; each comes with its answer.
Lab log: compare recorded IC50 with 40 µM; is it strictly lower for `c1ccc(CN2CC3CCC(C2)N3)cc1` ?
not met

Also `CC[C@@]1(O)C(=O)OCc2c1cc1n(c2=O)Cc2cc3ccccc3nc2-1` , if possible.
met

Also `c1ccc(-c2cccc(CN3CC4CCC(C3)N4Cc3cccc(-c4ccccc4)c3)c2)cc1` , if possible.
met

Also `O=[N+]([O-])c1ccc(-c2cc(CN3CC4CCC(C3)N4Cc3ccnc(-c4ccc([N+](=O)[O-])cc4)c3)ccn2)cc1` , if possible.
not met

Also `COc1cccc(-c2cc(CN3CC4CCC(C3)N4Cc3ccnc(-c4cccc(OC)c4)c3)ccn2)c1` , if possible.
met

Continuing:
Lab log: compare recorded IC50 with 40 µM; is it strictly lower for `c1ccc2c(c1)ccc1c(CN3CC4CCC(C3)N4Cc3cccc4c3ccc3ccccc34)cccc12` ?
not met

Also `CC(=O)Nc1ccc(-c2cc(CN3CC4CCC(C3)N4Cc3ccnc(-c4ccc(NC(C)=O)cc4)c3)ccn2)cc1` , if possible.
met

====

tested on: HepG2; assay: Antiproliferative activity against human HepG2 cells by MTT assay; format: functional, cell-based
Result Type: IC50

Worked cases, answers included:
Param item = `c1ccc(CN2CC3CCC(C2)N3Cc2ccccc2)cc1` ; retrieve measured IC50.
> 100 µM

Also `Oc1cccc(-c2cc(CN3CC4CCC(C3)N4Cc3ccnc(-c4cccc(O)c4)c3)ccn2)c1` , if possible.
> 100 µM

Continuing:
Param item = Sc1ncnc2nc[nH]c12 [MERCAPTOPURINE ANHYDROUS] ; retrieve measured IC50.
8 µM

====

tested on: DU-145; test: Antiproliferative activity against human DU145 cells by MTT assay; assay type: functional, cell-based
Result Type: log10 IC50 (log10 of the value in µM)
Could you please treat all values as log10 of IC50 in µM?

Param item = CC[C@@]1(O)C(=O)OCc2c1cc1n(c2=O)Cc2cc3ccccc3nc2-1 [CAMPTOTHECIN] ; retrieve measured log10 IC50.
-2.00

Also `c1ccc(-c2cccc(CN3CC4CCC(C3)N4Cc3cccc(-c4ccccc4)c3)c2)cc1` , if possible.
1.15

Also `c1ccc(-c2ccc(CN3CC4CCC(C3)N4Cc3ccc(-c4ccccc4)cc3)cc2)cc1` , if possible.
0.85

Also `O=C1C2CCC(N2)C(=O)N1Cc1ccccc1` , if possible.
1.94

Also `Oc1ccc(-c2cc(CN3CC4CCC(C3)N4Cc3ccnc(-c4ccc(O)cc4)c3)ccn2)cc1` , if possible.
1.18

In the following, a different compound is considered.
Param item = `c1ccc(-c2cc(CN3CC4CCC(C3)N4Cc3ccnc(-c4ccccc4)c3)ccn2)cc1` ; retrieve measured log10 IC50.
0.90

====

system: DU-145; assay: Antiproliferative activity against human DU145 cells by MTT assay; type: functional, cell-based
pIC50: −log10 of the molar value.
Result Type: pIC50

Worked cases, answers included:
Param item = `O=[N+]([O-])c1ccc(-c2cc(CN3CC4CCC(C3)N4Cc3ccnc(-c4ccc([N+](=O)[O-])cc4)c3)ccn2)cc1` ; retrieve measured pIC50.
< 4.00

Also `Oc1cccc(-c2cc(CN3CC4CCC(C3)N4Cc3ccnc(-c4cccc(O)c4)c3)ccn2)c1` , if possible.
< 4.00

In the following, a different compound is considered.
Param item = `c1ccc(CN2CC3CCC(C2)N3)cc1` ; retrieve measured pIC50.
< 4.00
